assay: qHTS assay to identify small molecule agonists of the hypoxia (HIF-1) signaling pathway - cell viability counter screen (AID 1224844); conditions: HRE-bla ME-180 viability, CellTiter-Glo luminescence, 17 h; series mostly up to 76.8 µM; further: nearly all actives have a fitted effect of over 50% in size
Inconclusive results are not listed. Calls of active or inactive are those of the source. The call rests on the fitted dose curve.
One label from this list, please: active, inactive

Past entries and their recorded results:
>>> df
                                 mol_smiles  classification
0     CCC(COC(=O)CCS)(COC(=O)CCS)COC(=O)CCS        inactive
1  COc1ccc2c(c1)c(CC(=O)OC/C=C(\C)CC/C=C(\C)CCC=C(C)C)c(C)n2C(=O)c1ccc(Cl)cc1        inactive
2         O=c1oc2cc(O)ccc2c2oc3cc(O)ccc3c12        inactive
3             O=C1NC(=O)[C@@H]2CC=CC[C@H]12          active
4                      C=CC(=O)OCCOC(=O)C=C          active

Please find the next compound below.
Prompt: State the result this test recorded for "Cc1ccc(C)cc1" .
Completion: inactive

----------
Test: qHTS assay to identify small molecule HDAC inhibitors (AID 1259364);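 further: wild-type HCT-116 cells with endogenous class I/II HDAC activity; nearly all actives have a fitted effect of over 45% in size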
Settings: HCT-116 HDAC-Glo I/II luminescence, 2 h; series mostly up to 92.4 µM
Source text: U.S. Tox21 Program National Center for Advancing Translational Sciences [NCATS] NIH Chemical Genomics Center [NCGC] U.S. Environmental Protection Agency [EPA] National Institutes of Environmental Health Sciences [NIEHS] National Toxicology Program [NTP] U.S. Food and Drug Administration [FDA] Tox21 Assay Overview: Histone deacetylases (HDACs) are a group of epigenetic enzymes that regulate gene expression by histone deacetylation. […]
Inconclusive results are not listed. Activity calls are given as the source filed them. The call rests on the fitted dose curve; in most records, active means well fitted inhibition curve with a large enough effect in the repeat runs; inconclusive means weak or mixed curves; inactive means flat fitted curve, though single readings scatter.
One label from this list, please: yes (1) (active), no (0) (inactive)

Past entries and their recorded results:
>>> print(df.to_string())
                                   compound  classification
0  CCCCCC(C)OC(=O)COc1ccc(Cl)c2cccnc12 (configuration not stated)          no (0)
1                      CC(C)(C)C1CCC(=O)CC1          no (0)
2  O=C1OC2(c3ccc(O)cc3Oc3cc(O)ccc32)c2ccc(N=C=S)cc21          no (0)
3  CN(C)C(=O)COC(=O)Cc1ccc(OC(=O)c2ccc(N=C(N)N)cc2)cc1         yes (1)
4  CC(CCc1ccccc1)NCC(O)c1ccc(O)c(C(N)=O)c1 (configuration not stated)          no (0)

Prompt: State the result this test recorded for "O=c1[nH]c2ccccc2n1CCCN1CCN(C(c2ccccc2)c2ccccc2)CC1" .
Completion: no (0)

Prompt: Another compound to look at: "C1CCC(SSC2CCCCC2)CC1"
Completion: no (0)

Prompt: Another compound to look at: "C/C=C/C=C/COC(=O)C(C)C"
Completion: no (0)

Prompt: Another compound to look at: "CN(C)Cc1ccccc1O"
Completion: no (0)

Prompt: Another compound to look at: "Cc1cccc2cccnc12"
Completion: no (0)

----------
test: qHTS assay to identify small molecule agonists of the androgen receptor (AR) signaling pathway in the presence of an antagonist - cell viability counter screen (AID 1259379); conditions: MDA-kb2 viability, CellTiter-Fluor, 16 h; series mostly up to 92.4 µM; further: nearly all actives have a fitted effect of over 25% in size
Inconclusive results are not listed. The source made the active and inactive calls. Calls follow the shape of the dose curve; as a rule, active = well fitted cell-killing curve with a large enough effect in the repeat runs; inconclusive = weak or mixed curves, or effect the other way; inactive = flat fitted curve, though single readings scatter.
One label from this list, please: active, inactive

>>> df
                                   molecule  classification
0                 COc1ccc(NC(=O)CC(C)=O)cc1        inactive
1    CCc1cccc(CC)c1NC(=O)CN(CC(=O)O)CC(=O)O        inactive
2                  O=C(O)c1cc(=O)c2ccccc2o1        inactive
3  C=CC(C)(CCC=C(C)C)OC=O (configuration not stated)        inactive
4  CCCCN(CCCC)CC(O)c1cc(Cl)cc2c1-c1ccc(Cl)cc1/C2=C/c1ccc(Cl)cc1 (configuration not stated)        inactive
5                CC(C)CCOC(=O)/C=C/c1ccccc1        inactive

Prompt: State the result this test recorded for "O=C(Nc1ccc2c(O)c(N=Nc3ccc(N=Nc4ccc(S(=O)(=O)O)cc4)cc3)c(S(=O)(=O)O)cc2c1)c1ccccc1" .
Completion: active

Prompt: Another molecule to look at: "CC(=O)[C@H]1CC[C@H]2[C@@H]3CCC4=CC(=O)CC[C@]4(C)[C@H]3CC[C@]12C"
Completion: active

Prompt: Another molecule to look at: "C=C(CC)C(=O)c1ccc(OCC(=O)O)c(Cl)c1Cl"
Completion: active

Prompt: Another molecule to look at: "O=C(O)c1cc(N=Nc2ccc([N+](=O)[O-])cc2)ccc1O"
Completion: active

Prompt: Another molecule to look at: "COC(C)=O"
Completion: inactive

Value source: PubChem BioAssay (Tox21)
